- System: HBV core protein K7 mutant (truncated core, C-terminal 7-lysine tail, E77C) (Hepatitis B virus) (UniProt P03149)
- Test description: EMSA
- Condition: phosphate (P) at end of the sequence; 20 mM NaHCO3 pH 9.5, room temperature, agarose gel
Readout type: pKd
Reminder that pKd means the negative base-10 logarithm of the concentration expressed in mol/L.

Q) Returns the measured pKd for the input sequence. Input: GGAAAGACUGUUCCAAAAAUUUUCCUUUCUGACAAGGUUUUU / AAAAACCUUGUCAGAAAGGAAAAUUUUUGGAACAGUCUUUCC [siGLO Cyclophilin B siRNA]
A) 6.43

----------
- System: HBV core protein K11 mutant (truncated core, C-terminal 11-lysine tail, E77C) (Hepatitis B virus) (UniProt P03149)
- Test description: EMSA
- Condition: phosphate (P) at end of the sequence; 20 mM NaHCO3 pH 9.5, room temperature, agarose gel
Readout type: Kd (nM)
Hi! Could you send only the number? It should be in nM, unit omitted.

Q) Fill blank: measured Kd of the sequence GGAAAGACUGUUCCAAAAAUUUUCCUUUCUGACAAGGUUUUU / AAAAACCUUGUCAGAAAGGAAAAUUUUUGGAACAGUCUUUCC [siGLO Cyclophilin B siRNA] is ____.
A) 69
